- methodDescription: PhoP-dependent GFP reporter repression – Salmonella Typhimurium, primary screen (AID 1863);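 further: 0% = low Mg2+ inducing control and 100% = high Mg2+ repressing control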
- particulars: S. Typhimurium PhoP-regulated promoter GFP reporter, 4 h; at 50 µM; stronger effect = higher value
Among all 300,000 compounds or so, about 480 (0.16%) were called active. A selection follows. Measured potencies and affinities stand elsewhere.

{"compound": "O=C(C[n+]1cc(-c2ccc(F)cc2)n2c1CCC2)Nc1nc(-c2ccc(F)cc2)cs1", "measurementUnits": "%", "inhibition": 20.4}
{"compound": "COc1cc2cccc(OC)c(=O)c2c(O)c1OC", "measurementUnits": "%", "inhibition": -3.95}
{"compound": "CCOC(=O)NCC(C#CCN(CC)CC)N(CC)CC (stereo not given)", "measurementUnits": "%", "inhibition": 4.11}
{"compound": "COC(=O)C(C)Oc1cc(OC(C)C(=O)OC)c2c(-c3ccccc3)cc(=O)oc2c1 (stereo not given)", "measurementUnits": "%", "inhibition": -1.83}
{"compound": "CCN=C1SC(CC(=O)NC2CCCCC2)C(=O)N1CC (stereo not given)", "measurementUnits": "%", "inhibition": 8.13}
{"compound": "O=[N+]([O-])c1ccc(/C=N/NC(=S)Nc2ccccc2)o1", "measurementUnits": "%", "inhibition": 18.4}
{"compound": "CCC(=O)N1CCc2cc(Br)cc(S(=O)(=O)CCC(=O)NCCOC)c21", "measurementUnits": "%", "inhibition": 1.63}
{"compound": "COc1ccc(O)c(/C=N/NC(=S)Nc2cccc(S(=O)(=O)N(C)C)c2)c1", "measurementUnits": "%", "inhibition": 22.2}
{"compound": "C=CCn1c(-c2sc3nc(C)cc(C)c3c2N)n[nH]c1=S", "measurementUnits": "%", "inhibition": 1.92}
{"compound": "Cc1ccc(NC(=O)C[n+]2cc(-c3ccc(C)cc3)n3c2CCC3)cc1", "measurementUnits": "%", "inhibition": -9.5}
{"compound": "CN(C)S(=O)(=O)c1cccc(NC(=S)N/N=C/c2ccc(O)c(O)c2O)c1", "measurementUnits": "%", "inhibition": -0.51}
{"compound": "COc1ccc(C)cc1NC(=O)NNC(=O)C1CCC(C(C)(C)C)CC1 (stereo not given)", "measurementUnits": "%", "inhibition": -7.11}
{"compound": "COc1ccc(Cl)cc1NC(=O)C/C(C)=N/NC(=O)COc1ccc(C)cc1", "measurementUnits": "%", "inhibition": 4.2}
{"compound": "COC(=O)c1ccc(N2C(=O)CC(N3CCOCC3)C2=O)cc1 (stereo not given)", "measurementUnits": "%", "inhibition": 1.31}
{"compound": "CCN(CC)C(=S)Nc1ccc([N+](=O)[O-])cc1", "measurementUnits": "%", "inhibition": 3.9}
